As shown below, each of these binders has a reported Kd value.
Tgt: HpNikR W54A (Helicobacter pylori G27, UniProt A1YSQ9 1-148, W54A)
Assay overview: fluorescence anisotropy; apo (no Ni); FA: 5 nM DNA, 20 mM Tris pH 7.6, 100 mM NaCl, 3 mM MgSO4, temperature not stated (Ni loading 1.2 eq NiSO4 per monomer at RT). EMSA: 20 mM Tris pH 7.5, 100 mM KCl, 3 mM MgCl2, 0.1% IGEPAL, 5% glycerol, 0.1 mg/ml herring sperm DNA, RT; gel with 800 uM NiSO4 at 4 C
Measurement parameters: protein: recombinant; tags: none stated; chain copies: 4; label: fluorescein on internal thymine (T14 of strand 1); blunt
Property label: Kd (µM)

>>> measured_value("ureA-perf promoter 32 bp (dsDNA) DNA 1: ATATATTATTAATTCATTTTAAATAATAATTA DNA 2: TAATTATTATTTAAAATGAATTAATAATATAT")
3.7
>>> measured_value("ureA promoter 32 bp (FA) (dsDNA) DNA 1: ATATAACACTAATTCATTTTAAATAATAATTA DNA 2: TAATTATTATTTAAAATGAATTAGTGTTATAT")
6.1
